# Test system: Chikungunya virus (CHIKV)
# assay: microbe, parasite or virus in culture
# Assay type: cell-based
# test-settings: Chikungunya virus, Vero, 48 h, read-out: Percent viral inhibition CHKV
measure: inhibition at 1 µM (%)
Report the figure in % without appending any unit label.

CC(=O)NCC1CCN(Cc2cc(Oc3cnc(N4CCN(CCC(C)(C)C(=O)O)CC4)nc3)nc(-c3cc(Cl)cc(Cl)c3)c2)CC1 ... 24.6
CC(=O)NCC1CCN(Cc2cc(Oc3ccc(N4CCN(CCCC(=O)O)CC4)nc3)nc(-c3cc(Cl)cc(Cl)c3)c2)CC1 ... 32.5
CC(=O)NCC1CCN(Cc2cc(Oc3ccc(N4CCN(CCC(=O)O)CC4)nn3)nc(-c3cc(Cl)cc(Cl)c3)c2)CC1 ... 0
NCCNc1ccc(Oc2cc(CN3CCOCC3)cc(-c3cc(Cl)cc(Cl)c3)c2)cn1 ... 0
CN1CCN(c2ncc(Oc3cc(CN4CCO[C@H](CO)CC4)cc(-c4cc(Cl)cc(Cl)c4)n3)cn2)CC1 ... 24.6

Query (compound): CN1CCN(c2ncc(Oc3cc(CN4CCC(CC(=O)O)CC4)cc(-c4cc(Cl)cc(Cl)c4)n3)cn2)CC(F)C1 (stereo not shown) ; field requested: inhibition at 1 µM
31.7

# repeat for CC(=O)NCC1CCN(Cc2cc(Oc3cnc(N4CCN(CCC(=O)O)CC4)c(F)c3)nc(-c3cc(Cl)cc(Cl)c3)c2)CC1
22.6
